Cited source for all entries: patent US5332726A

Target: fixed activated platelets (Homo sapiens, UniProt P05106+P08514)
Sequence (P08514 32-1039): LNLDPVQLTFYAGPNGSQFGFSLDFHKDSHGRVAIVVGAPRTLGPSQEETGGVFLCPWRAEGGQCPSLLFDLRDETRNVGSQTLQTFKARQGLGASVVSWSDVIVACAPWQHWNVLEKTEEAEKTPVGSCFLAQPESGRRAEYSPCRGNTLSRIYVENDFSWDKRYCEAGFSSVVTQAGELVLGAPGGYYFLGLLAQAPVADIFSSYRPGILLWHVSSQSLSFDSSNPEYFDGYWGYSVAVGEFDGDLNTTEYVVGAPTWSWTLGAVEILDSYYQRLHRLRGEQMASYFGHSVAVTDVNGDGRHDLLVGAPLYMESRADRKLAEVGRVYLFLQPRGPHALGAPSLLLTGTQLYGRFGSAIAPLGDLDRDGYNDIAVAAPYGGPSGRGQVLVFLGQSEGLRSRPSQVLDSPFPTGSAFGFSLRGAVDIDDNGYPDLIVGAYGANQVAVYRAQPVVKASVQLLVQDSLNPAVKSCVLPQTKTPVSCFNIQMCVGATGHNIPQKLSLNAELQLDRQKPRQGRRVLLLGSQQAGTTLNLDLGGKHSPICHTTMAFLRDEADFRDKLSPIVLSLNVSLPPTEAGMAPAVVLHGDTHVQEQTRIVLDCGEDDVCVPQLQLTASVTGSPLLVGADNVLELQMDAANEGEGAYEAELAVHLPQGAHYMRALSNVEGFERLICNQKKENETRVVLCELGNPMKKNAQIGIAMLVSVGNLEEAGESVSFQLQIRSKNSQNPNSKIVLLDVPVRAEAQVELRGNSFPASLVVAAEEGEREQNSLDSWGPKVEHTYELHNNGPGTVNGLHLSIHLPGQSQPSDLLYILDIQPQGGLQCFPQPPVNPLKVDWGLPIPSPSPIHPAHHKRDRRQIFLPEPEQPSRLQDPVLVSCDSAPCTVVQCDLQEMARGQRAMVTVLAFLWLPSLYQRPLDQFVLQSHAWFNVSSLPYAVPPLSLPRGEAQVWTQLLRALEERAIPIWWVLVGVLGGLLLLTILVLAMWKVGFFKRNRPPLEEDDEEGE
Sequence (P05106 27-788): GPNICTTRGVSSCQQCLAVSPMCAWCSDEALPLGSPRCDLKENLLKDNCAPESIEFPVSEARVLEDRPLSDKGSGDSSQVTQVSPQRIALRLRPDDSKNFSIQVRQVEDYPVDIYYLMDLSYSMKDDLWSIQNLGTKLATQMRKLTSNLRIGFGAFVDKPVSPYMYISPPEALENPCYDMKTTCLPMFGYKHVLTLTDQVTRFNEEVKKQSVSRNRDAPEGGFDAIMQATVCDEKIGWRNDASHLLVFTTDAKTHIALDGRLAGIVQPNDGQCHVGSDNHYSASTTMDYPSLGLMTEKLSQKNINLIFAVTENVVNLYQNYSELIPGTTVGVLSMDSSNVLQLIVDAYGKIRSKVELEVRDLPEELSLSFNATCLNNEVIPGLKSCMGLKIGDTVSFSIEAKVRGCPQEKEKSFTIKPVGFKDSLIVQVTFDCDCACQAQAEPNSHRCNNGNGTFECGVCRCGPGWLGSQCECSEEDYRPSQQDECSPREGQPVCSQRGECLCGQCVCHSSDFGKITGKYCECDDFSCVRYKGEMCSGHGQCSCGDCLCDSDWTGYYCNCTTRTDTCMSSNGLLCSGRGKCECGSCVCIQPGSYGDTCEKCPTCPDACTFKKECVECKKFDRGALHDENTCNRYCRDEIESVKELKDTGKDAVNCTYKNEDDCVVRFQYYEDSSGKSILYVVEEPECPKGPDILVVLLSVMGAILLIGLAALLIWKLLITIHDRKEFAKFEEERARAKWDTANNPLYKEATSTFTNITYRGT
Assay: Platelet Aggregation Assay (fibrinogen-mediated aggregation of fixed-activated platelets)
Assay type: cell-based
Settings: read-out: Inhibition of Fibrinogen Mediated Platelet Aggregation % inhibition at 25 μM
propertyName: inhibition at 25 µM (%)
Please state the figure in %; there is no need to write the unit.

inhibition at 25 µM of CC(C)[C@H](NC(=O)[C@H](CC(=O)O)NC(=O)CCCCNC(=N)N)C(=O)O [5-guanidinovaleroyl-L-aspartyl-L-valine] on fixed activated platelets (Homo sapiens, UniProt P05106+P08514)?
28

Note, next up: CCC(CCCCCCNC(=N)N)C(=O)NC(CC(=O)O)C(=O)N[C@H](C(=O)O)C(C)C (mixture of isomers)
30

Note, next up: N=C(N)NCCCCCC=CC(=O)N[C@@H](CC(=O)O)C(=O)N[C@@H](CCCNC(=N)N)C(=O)O
90

Note, next up: CC(C)[C@H](NC(=O)[C@H](CC(=O)O)NC(=O)CN(C)C(=O)CCCNC(=N)N)C(=O)O
84

Note, next up: CC[C@H](C)[C@@H](CN[C@@H](CCCNC(=N)N)C(=O)O)NC(=O)[C@H](CC(=O)O)NC(=O)CCCCCCCCNC(=N)N
38

Note, next up: COC(=O)[C@](CCCNC(=N)N)(CC(C)C)NC(=O)[C@H](CC(=O)O)NC(=O)CCCCCCCCNC(=N)N
0

Note, next up: CC(C)[C@H](NC(=O)[C@H](CC(=O)O)NC(=O)CN(C)C(=O)CCCCn1ccnc1)C(=O)O
95

====

Target: thrombin-stimulated platelets (Homo sapiens, UniProt P05106+P08514)
Experiment: Fibrinogen-Binding Assay (125I-fibrinogen binding to platelets)
Conditions: 125I-fibrinogen 0.176 μmol/liter, thrombin-stimulated platelets; read-out: Inhibition of 125I-Fibrinogen Binding to Platelets IC50
propertyName: pIC50
Interpret pIC50 as the negative base-10 log of the concentration measured in mol/L.

Check out these entries, answers already filled in.
{"columns": ["structureSmiles", "resultValue"],
 "data": [
  ["CC(C)[C@H](NC(=O)[C@H](CC(=O)O)NC(=O)CNC(=O)CCCNC(=N)N)C(=O)O", 5.00],
  ["CCN(CC(=O)N[C@@H](CC(=O)O)C(=O)N[C@H](C(=O)O)C(C)C)C(=O)CCCCNC(=N)N", 7.40],
  ["CC(C)[C@H](NC(=O)[C@H](CC(=O)O)NC(=O)CCCCCCCCn1ccnc1)C(=O)O", 6.30],
  ["CCN(CC(=O)N[C@@H](CC(=O)O)C(=O)N[C@@H](CC(C)C)C(=O)O)C(=O)CCCCNC(=N)N", 6.41],
  ["CC(C)[C@H](NC(=O)[C@H](CC(=O)O)NC(=O)/C=C/CCCCCCNC(=N)N)C(=O)O", 6.37],
  ["CCN(CC(=O)N[C@@H](CC(=O)O)C(=O)N[C@H](C(=O)O)C(C)C)C(=O)CCCCCCn1ccnc1", 5.89]
]}

I'd like to know its pIC50. The compound in question is CCN(CC(=O)N[C@@H](CC(=O)O)C(=O)N[C@@H](Cc1ccccc1)C(=O)O)C(=O)CCCCCNC(=N)N
6.70

Note, next up: CN(CC(=O)N[C@@H](CC(=O)O)C(=O)N[C@@H](CCCNC(=N)N)C(=O)O)C(=O)CCCCCNC(=N)N
6.28
